# System: myeloid leukemia patient primary cells Pat.11
# ASSAY NOTES: cell viability (% survival relative to DMSO control); higher = less cytotoxic
# TEST CONDITIONS: 100 nM; 72 h
Quick list: cell viability per entry.
Lab book: enter the figure in %, no units written.

INPUT: Give cell viability (myeloid leukemia patient primary cells Pat.11) of the following compound: Nc1nc(Cl)nc2c1ncn2[C@H]1C[C@H](O)[C@@H](CO)O1
OUTPUT: 76.6

INPUT: Further, for COC(=O)[C@]12CCC(C)(C)C[C@H]1[C@H]1C(=O)C=C3[C@@]4(C)C=C(C#N)C(=O)C(C)(C)[C@@H]4CC[C@@]3(C)[C@]1(C)CC2 ?
OUTPUT: 87.7

INPUT: Also, C=C(C)[C@H]1Cc2c(ccc3c2O[C@@H]2COc4cc(OC)c(OC)cc4[C@@H]2C3=O)O1 please.
OUTPUT: 94.2

INPUT: Follow-up item: Oc1ccc(Nc2nc(-c3ccc(Cl)cc3)cs2)cc1
OUTPUT: 98.4
